# Study Target: nuclear BRD4-NUT foci in HCC2494 NUT midline carcinoma cells (Homo sapiens (Human), UniProt O60885+Q86Y26)
# Experiment: Nut-foci formation assay
# Assay type: cell-based
# Condition Parameters: 24 hours, read-out: HCS Brd4-NUT IC50
Checkbox rule: IC50 lower than 100 nM = t; IC50 not lower than 100 nM = f.

Cc1cc(N2C(=O)c3nn(C4COC4)c(C)c3C2c2ccc(Cl)cc2)cn2c(C)nnc12 (centres unmarked) [Example 136]; t
COc1ncc(-n2nc3c(c2C)C(c2ccc(Cl)cc2)N(c2cc(Cl)c(=O)n(C)c2)C3=O)c(OC)n1 (centres unmarked) [Example 55]; t
Cc1cc(N2C(=O)c3n[nH]cc3C2c2ccc(Cl)cc2)cn(C)c1=O (centres unmarked) [Example 26]; f

input: IC50 under 100 nM? Item: Cc1c2c(nn1C1CC1)C(=O)N(c1cc(Cl)c(=O)n(C)c1)[C@@H]2c1ccc(Cl)cc1 [Example 19]
output: f

input: IC50 under 100 nM? Item: COc1ncccc1-n1nc(C)c2c1C(=O)N(c1cc(Cl)c(=O)n(C)c1)C2c1ccc(Cl)cc1 (centres unmarked) [Example 72]
output: f

input: IC50 under 100 nM? Item: COc1ncccc1-n1nc(C)c2c1C(=O)N(c1cc(C)c3nnc(C)n3n1)C2c1ccc(Cl)cc1 (centres unmarked) [Example 111]
output: t

Just for reference, patent US8975417B2 is where these values come from.
